Values compiled from PubChem BioAssay AID1963860.

test system: CN0375-F725-PDC KRAS spheroid viability; test: Anticancer human tumor CN0375-F725-PDC patient-derived colon carcinoma cell line growth inhibition [KRAS2]; conditions: second compound 3.16 µM; first compound 0.01 µM; stronger effect = lower value; spheroids with HUVEC and MSC
Label key: T means viability, T/C under 50%; F means viability, T/C of 50% or more.

CC(=O)Nc1cccc(-n2c(=O)n(C3CC3)c(=O)c3c(Nc4ccc(I)cc4F)n(C)c(=O)c(C)c32)c1 + C=CC(=O)N1CCN(c2nc(=O)n(-c3c(C)ccnc3C(C)C)c3nc(-c4c(O)cccc4F)c(F)cc23)C(C)C1
T

Lookup: Quick check: does CC(=O)Nc1cccc(-n2c(=O)n(C3CC3)c(=O)c3c(Nc4ccc(I)cc4F)n(C)c(=O)c(C)c32)c1 + C=CC(=O)N1CCN(c2nc(OCC3CCCN3C)nc3c2CCN(c2cccc4cccc(C)c24)C3)CC1CC#N have viability, T/C under 50%?
Found: T

---

Measured viability, T/C accompanies every entry in the list below.
system: CN0375-F725-PDC KRAS spheroid viability; test: Anticancer human tumor CN0375-F725-PDC cell line growth inhibition [KRAS2]; conditions: second compound 0.0316 µM; first compound 0.000316 µM; stronger effect = lower value; spheroids with HUVEC and MSC;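 note: spheroids exposed to agents for 7 days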
Supply the numeric figure in %, leaving out any unit text.

// below: answered molecules
CC(C)n1nc(-c2ccc3oc(N)nc3c2)c2c(N)ncnc21 + C=CC(=O)N1CCN(c2nc(OCC3CCCN3C)nc3c2CCN(c2cccc4cccc(C)c24)C3)CC1CC#N
106
CC(=O)Nc1cccc(-n2c(=O)n(C3CC3)c(=O)c3c(Nc4ccc(I)cc4F)n(C)c(=O)c(C)c32)c1 + C=CC(=O)N1CCN(c2nc(OCC3CCCN3C)nc3c2CCN(c2cccc4cccc(C)c24)C3)CC1CC#N
85.7
Cn1ncnc1[C@H]1c2n[nH]c(=O)c3cc(F)cc(c23)N[C@@H]1c1ccc(F)cc1 + C=CC(=O)N1CCN(c2nc(OCC3CCCN3C)nc3c2CCN(c2cccc4cccc(C)c24)C3)CC1CC#N
99.6

Lookup: What viability, T/C value was documented for this molecule, CN(C)C/C=C/C(=O)Nc1cc2c(Nc3ccc(F)c(Cl)c3)ncnc2cc1O[C@H]1CCOC1 + C=CC(=O)N1CCN(c2nc(OCC3CCCN3C)nc3c2CCN(c2cccc4cccc(C)c24)C3)CC1CC#N ?
Found: 107

---

tested on: CN0375-F725-PDC KRAS spheroid viability; test: Anticancer human tumor CN0375-F725-PDC cell line growth inhibition [KRAS2]; conditions: second compound 3.16 µM; first compound 0.0316 µM; spheroids with HUVEC and MSC; active = viability on the fitted dose curve at most 10% of control; inactive = the rest;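 note: spheroids exposed to agents for 7 days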
Log the outcome using a class from 1 = active, 0 = inactive

CC(=O)OC12COC1CC(O)C1(C)C(=O)C(O)C3=C(C)C(OC(=O)C(O)C(NC(=O)OC(C)(C)C)c4ccccc4)CC(O)(C(OC(=O)c4ccccc4)C21)C3(C)C (stereo not given) + C=CC(=O)N1CCN(c2nc(=O)n(-c3c(C)ccnc3C(C)C)c3nc(-c4c(O)cccc4F)c(F)cc23)C(C)C1
0

Lookup: How was COc1cc2nccc(Oc3ccc(NC(=O)C4(C(=O)Nc5ccc(F)cc5)CC4)cc3)c2cc1OC + C=CC(=O)N1CCN(c2nc(OCC3CCCN3C)nc3c2CCN(c2cccc4cccc(C)c24)C3)CC1CC#N classified in this test?
Found: 0

Lookup: How was CC(=O)OC12COC1CC(O)C1(C)C(=O)C(O)C3=C(C)C(OC(=O)C(O)C(NC(=O)OC(C)(C)C)c4ccccc4)CC(O)(C(OC(=O)c4ccccc4)C21)C3(C)C (stereo not given) + COc1cc2nc(C)nc(NC(C)c3cc(N)cc(C(F)(F)F)c3)c2cc1OC1CCOC1 classified in this test?
Found: 0

Lookup: How was CCNC(=O)CC1N=C(c2ccc(Cl)cc2)c2cc(OC)ccc2-n2c(C)nnc21 (stereo not given) + C=CC(=O)N1CCN(c2nc(=O)n(-c3c(C)ccnc3C(C)C)c3nc(-c4c(O)cccc4F)c(F)cc23)C(C)C1 classified in this test?
Found: 0

Lookup: How was CN(C)C/C=C/C(=O)Nc1cc2c(Nc3ccc(F)c(Cl)c3)ncnc2cc1O[C@H]1CCOC1 + C=CC(=O)N1CCN(c2nc(OCC3CCCN3C)nc3c2CCN(c2cccc4cccc(C)c24)C3)CC1CC#N classified in this test?
Found: 1

---

test system: CN0375-F725-PDC KRAS spheroid viability; experiment: Anticancer human tumor CN0375-F725-PDC cell line growth inhibition [KRAS2]; conditions: second compound 1 µM; first compound 0.316 µM; stronger effect = lower value; spheroids with HUVEC and MSC;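 note: spheroids exposed to agents for 7 days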
Measured viability, T/C accompanies every entry in the list below.
Supply the numeric figure in %, leaving out any unit text.

CC(C)NCC(C(=O)N1CCN(c2ncnc3c2C(C)CC3O)CC1)c1ccc(Cl)cc1 (stereo not given) + CC1OCC2(CCN(c3cnc(Sc4ccnc(N)c4Cl)c(N)n3)CC2)C1N
84.3

Lookup: What viability, T/C value was documented for this compound, CC1COCCN1c1cc(-c2ccnn2C)c2ccnc(-c3ccn[nH]3)c2n1 (stereo not given) + C=CC(=O)N1CCN(c2nc(=O)n(-c3c(C)ccnc3C(C)C)c3nc(-c4c(O)cccc4F)c(F)cc23)C(C)C1 ?
Found: 80.5

Lookup: What viability, T/C value was documented for this compound, O=C(c1cc(Cc2n[nH]c(=O)c3ccccc23)ccc1F)N1CCN(C(=O)C2CC2)CC1 + COc1cc2nc(C)nc(NC(C)c3cc(N)cc(C(F)(F)F)c3)c2cc1OC1CCOC1 ?
Found: 99

Lookup: What viability, T/C value was documented for this compound, COc1cc(Nc2ncc3c(n2)-c2ccc(Cl)cc2C(c2c(F)cccc2OC)=NC3)ccc1C(=O)O + COc1cc2nc(C)nc(NC(C)c3cc(N)cc(C(F)(F)F)c3)c2cc1OC1CCOC1 ?
Found: 89.8

Lookup: What viability, T/C value was documented for this compound, CCNC(=O)CC1N=C(c2ccc(Cl)cc2)c2cc(OC)ccc2-n2c(C)nnc21 (stereo not given) + COc1cc2nc(C)nc(NC(C)c3cc(N)cc(C(F)(F)F)c3)c2cc1OC1CCOC1 ?
Found: 71.2

Lookup: What viability, T/C value was documented for this compound, CC1COCCN1c1cc(-c2ccnn2C)c2ccnc(-c3ccn[nH]3)c2n1 (stereo not given) + C=CC(=O)N1CCN(c2nc(OCC3CCCN3C)nc3c2CCN(c2cccc4cccc(C)c24)C3)CC1CC#N ?
Found: 71

Lookup: What viability, T/C value was documented for this compound, CC(=O)OC12COC1CC(O)C1(C)C(=O)C(O)C3=C(C)C(OC(=O)C(O)C(NC(=O)OC(C)(C)C)c4ccccc4)CC(O)(C(OC(=O)c4ccccc4)C21)C3(C)C (stereo not given) + C=CC(=O)N1CCN(c2nc(=O)n(-c3c(C)ccnc3C(C)C)c3nc(-c4c(O)cccc4F)c(F)cc23)C(C)C1 ?
Found: 87.1

Lookup: What viability, T/C value was documented for this compound, CC(=O)OC12COC1CC(O)C1(C)C(=O)C(O)C3=C(C)C(OC(=O)C(O)C(NC(=O)OC(C)(C)C)c4ccccc4)CC(O)(C(OC(=O)c4ccccc4)C21)C3(C)C (stereo not given) + CC1OCC2(CCN(c3cnc(Sc4ccnc(N)c4Cl)c(N)n3)CC2)C1N ?
Found: 83.8

Lookup: What viability, T/C value was documented for this compound, COc1cc(Nc2ncc3c(n2)-c2ccc(Cl)cc2C(c2c(F)cccc2OC)=NC3)ccc1C(=O)O + C=CC(=O)N1CCN(c2nc(OCC3CCCN3C)nc3c2CCN(c2cccc4cccc(C)c24)C3)CC1CC#N ?
Found: 82.9

Lookup: What viability, T/C value was documented for this compound, CC1COCCN1c1cc(-c2ccnn2C)c2ccnc(-c3ccn[nH]3)c2n1 (stereo not given) + CC1OCC2(CCN(c3cnc(Sc4ccnc(N)c4Cl)c(N)n3)CC2)C1N ?
Found: 70.7

Lookup: What viability, T/C value was documented for this compound, CC(=O)OC12COC1CC(O)C1(C)C(=O)C(O)C3=C(C)C(OC(=O)C(O)C(NC(=O)OC(C)(C)C)c4ccccc4)CC(O)(C(OC(=O)c4ccccc4)C21)C3(C)C (stereo not given) + CNCc1ccccc1-c1csc(C(C)Nc2nc(C)nc3cc(OC)c(OC)cc23)c1 ?
Found: 84

---

Measured viability, T/C accompanies every entry in the list below.
test system: CN0375-F725-PDC KRAS spheroid viability; experiment: Anticancer human tumor CN0375-F725-PDC cell line growth inhibition [KRAS2]; conditions: second compound 3.16 µM; first compound 0.01 µM; stronger effect = lower value; spheroids with HUVEC and MSC;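 note: spheroids exposed to agents for 7 days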
Supply the numeric figure in %, leaving out any unit text.

CC(=O)OC12COC1CC(O)C1(C)C(=O)C(O)C3=C(C)C(OC(=O)C(O)C(NC(=O)OC(C)(C)C)c4ccccc4)CC(O)(C(OC(=O)c4ccccc4)C21)C3(C)C (stereo not drawn) + C=CC(=O)N1CCN(c2nc(=O)n(-c3c(C)ccnc3C(C)C)c3nc(-c4c(O)cccc4F)c(F)cc23)C(C)C1
97.8

Lookup: What viability, T/C value was documented for this compound, Cn1ncnc1[C@H]1c2n[nH]c(=O)c3cc(F)cc(c23)N[C@@H]1c1ccc(F)cc1 + C=CC(=O)N1CCN(c2nc(=O)n(-c3c(C)ccnc3C(C)C)c3nc(-c4c(O)cccc4F)c(F)cc23)C(C)C1 ?
Found: 104

Lookup: What viability, T/C value was documented for this compound, CN(C)C/C=C/C(=O)Nc1cc2c(Nc3ccc(F)c(Cl)c3)ncnc2cc1O[C@H]1CCOC1 + COc1cc2nc(C)nc(NC(C)c3cc(N)cc(C(F)(F)F)c3)c2cc1OC1CCOC1 ?
Found: 66.1
